Target: UniProtKB P31422
Sequence (P31422 whole entry, looked up): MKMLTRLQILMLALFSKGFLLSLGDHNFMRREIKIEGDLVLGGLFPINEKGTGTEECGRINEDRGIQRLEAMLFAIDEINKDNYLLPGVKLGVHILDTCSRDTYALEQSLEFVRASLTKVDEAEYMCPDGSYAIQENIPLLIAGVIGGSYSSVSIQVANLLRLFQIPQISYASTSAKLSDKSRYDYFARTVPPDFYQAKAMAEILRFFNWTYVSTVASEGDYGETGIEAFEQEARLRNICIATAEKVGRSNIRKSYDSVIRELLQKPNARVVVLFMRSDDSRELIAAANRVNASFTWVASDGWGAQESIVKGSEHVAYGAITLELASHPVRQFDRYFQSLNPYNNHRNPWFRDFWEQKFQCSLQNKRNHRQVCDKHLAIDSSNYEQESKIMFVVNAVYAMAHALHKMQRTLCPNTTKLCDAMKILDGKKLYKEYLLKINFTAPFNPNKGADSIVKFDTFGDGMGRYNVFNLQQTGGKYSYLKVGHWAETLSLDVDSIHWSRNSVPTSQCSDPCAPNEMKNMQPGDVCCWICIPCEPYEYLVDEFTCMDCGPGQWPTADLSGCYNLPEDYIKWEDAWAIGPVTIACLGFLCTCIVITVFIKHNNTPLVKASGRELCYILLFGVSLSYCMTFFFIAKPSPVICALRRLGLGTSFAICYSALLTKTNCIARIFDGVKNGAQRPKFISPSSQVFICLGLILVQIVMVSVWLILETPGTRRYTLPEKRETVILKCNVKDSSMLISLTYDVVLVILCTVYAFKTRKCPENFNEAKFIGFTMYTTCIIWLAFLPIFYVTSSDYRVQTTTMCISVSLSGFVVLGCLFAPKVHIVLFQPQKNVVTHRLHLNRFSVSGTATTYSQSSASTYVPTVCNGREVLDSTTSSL
Assay: rat mGlu3 negative modulators or antagonists, dose response, thallium flux, HEK/GIRK cells (AID 623885)
Conditions: HEK293 GIRK rat mGlu3, thallium flux fluorescence; at 30 µM (top of the series)
Active and inactive are the calls of the source.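 Rule for the calls: active = mean half-maximal effective concentration under 30 µM; inactive = the rest.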
Outcomes: 1 for active, -1 for inactive

>>> print(df.to_string())
                                    compound         tested_on  answer_label
 0  COc1cccc(C#Cc2ccc(C(=O)N3CCC(O)CC3)cc2)c1  UniProtKB P31422            -1
 1       CN(C)CC#Cc1ccc(C(=O)N2CCC(O)CC2)cc1  UniProtKB P31422            -1
 2  COc1ccc(C#Cc2ccc(C(=O)N3CCCCC3CO)cc2)cc1 (configuration not stated)  UniProtKB P31422             1
 3  COc1ccc(C#Cc2ccc(C(=O)N3CCC(C)(O)CC3)cc2)cc1  UniProtKB P31422             1
 4  O=Cc1ccccc1C#Cc1ccc(C(=O)N2CCC(O)CC2)cc1  UniProtKB P31422             1
 5  COc1ccc(C#Cc2ccc(C(=O)N3CCN(c4ccccc4OC)CC3)cc2)cc1  UniProtKB P31422            -1
 6               O=C(c1ccc(I)cc1)N1CCC(O)CC1  UniProtKB P31422            -1
 7   COc1ccccc1C#Cc1ccc(C(=O)N2CCC(O)CC2)cc1  UniProtKB P31422            -1
 8  COc1ccc(C#Cc2ccc(C(=O)NCCC(C)(C)O)cc2)cc1  UniProtKB P31422             1
 9  COc1ccc(C#Cc2ccc(C(=O)N3CCC[C@H](C(=O)O)C3)cc2)cc1  UniProtKB P31422             1
10  COCC(C)NC(=O)c1ccc(C#Cc2ccc(OC)cc2)cc1 (configuration not stated)  UniProtKB P31422            -1
11  O=C(c1ccc(C#CCN2C(=O)c3ccccc3C2=O)cc1)N1CCC(O)CC1  UniProtKB P31422            -1
12     O=C(c1ccc(C#CCc2ccsc2)cc1)N1CCC(O)CC1  UniProtKB P31422             1
13      O=C(c1ccc(C#CC2CCCC2)cc1)N1CCC(O)CC1  UniProtKB P31422            -1
14   O=C(c1ccc(C#CCOc2ccccc2)cc1)N1CCC(O)CC1  UniProtKB P31422             1
15  COc1ccc(C#Cc2ccc(C(=O)NCCC(C)(C)C)cc2)cc1  UniProtKB P31422            -1
16  COc1ccc(C#Cc2ccc(C(=O)NC(C)(C)CO)cc2)cc1  UniProtKB P31422             1
17  O=C(c1ccc(C#CCOCC2CO2)cc1)N1CCC(O)CC1 (configuration not stated)  UniProtKB P31422            -1
18  CCc1ccc(C#Cc2ccc(C(=O)N3CCC(O)CC3)cc2)cc1  UniProtKB P31422             1
19      COc1ccc(C#Cc2ccc(C(=O)NCCCCO)cc2)cc1  UniProtKB P31422            -1
20       CC(C)CC#Cc1ccc(C(=O)N2CCC(O)CC2)cc1  UniProtKB P31422            -1
21  COc1ccc(C#Cc2ccc(C(=O)N3CCC4CCCCC4C3)cc2)cc1 (configuration not stated)  UniProtKB P31422            -1
22  COc1ccc(C#Cc2ccc(C(=O)N3CCC(O)CC3)cc2)cc1  UniProtKB P31422             1
23  COc1ccc(C#Cc2ccc(C(=O)N3CCC(OC)CC3)cc2)cc1  UniProtKB P31422            -1
24  O=C(c1ccc(C#Cc2ccc(-c3ccccc3)cc2)cc1)N1CCC(O)CC1  UniProtKB P31422            -1
25  COc1ccc(C#Cc2ccc(C(=O)N[C@H](C)C3CC3)cc2)cc1  UniProtKB P31422             1
26  COc1ccc(C#Cc2ccc(C(=O)N3CCN(c4ccccc4)CC3)cc2)cc1  UniProtKB P31422            -1
27     COc1ccc(C#Cc2ccc(C(=O)NC3CCC3)cc2)cc1  UniProtKB P31422            -1
28    O=C(c1ccc(C#CC2=CCCCC2)cc1)N1CCC(O)CC1  UniProtKB P31422             1
29        O=C(c1ccc(C#CCCCCO)cc1)N1CCC(O)CC1  UniProtKB P31422            -1
30   COc1ccc(C#Cc2ccc(C(=O)NC(C)(C)C)cc2)cc1  UniProtKB P31422            -1
31  Cc1ccc(C#Cc2ccc(C(=O)N3CCC(O)CC3)cc2)cc1  UniProtKB P31422             1
32     CC(C)(O)C#Cc1ccc(C(=O)N2CCC(O)CC2)cc1  UniProtKB P31422            -1
33  COc1ccc(C#Cc2ccc(C(=O)N3CCC(CO)C3)cc2)cc1 (configuration not stated)  UniProtKB P31422             1
34  CC(O)(C#Cc1ccc(C(=O)N2CCC(O)CC2)cc1)c1cccc(F)c1 (configuration not stated)  UniProtKB P31422            -1
35       O=C(c1ccc(C#CCCCCCl)cc1)N1CCC(O)CC1  UniProtKB P31422             1
36       N#CCCCC#Cc1ccc(C(=O)N2CCC(O)CC2)cc1  UniProtKB P31422            -1
37        COc1ccc(C#Cc2ccc(C(=O)NCCO)cc2)cc1  UniProtKB P31422            -1
38  O=C(c1ccc(C#CCN2N=NCc3ccccc32)cc1)N1CCC(O)CC1  UniProtKB P31422            -1
39     COc1ccc(C#Cc2ccc(C(=O)N3CCCC3)cc2)cc1  UniProtKB P31422             1
40   O=C(c1ccc(C#CC2(O)CCCC2)cc1)N1CCC(O)CC1  UniProtKB P31422            -1
41  COc1ccc(C#Cc2ccc(C(=O)N3CCN(C(C)C)CC3)cc2)cc1  UniProtKB P31422             1
42  O=C(c1ccc(C#CCCCN2C(=O)c3ccccc3C2=O)cc1)N1CCC(O)CC1  UniProtKB P31422            -1
43    O=C(c1ccc(C#Cc2ccccc2F)cc1)N1CCC(O)CC1  UniProtKB P31422             1
44  O=C(c1ccc(C#Cc2cccc3ccccc23)cc1)N1CCC(O)CC1  UniProtKB P31422             1
45  CC(O)CC#Cc1ccc(C(=O)N2CCC(O)CC2)cc1 (configuration not stated)  UniProtKB P31422            -1
46       COc1ccc(C#Cc2ccc(C(=O)NCCCO)cc2)cc1  UniProtKB P31422            -1

----------
Target: Metabotropic glutamate receptor 3 (Rattus norvegicus)
Assay: rat mGlu3 negative modulators or antagonists, dose response, thallium flux, HEK/GIRK cells (AID 623885)
Settings: HEK293 GIRK rat mGlu3, thallium flux fluorescence; at 30 µM (top of the series)
Calls of active or inactive are those of the source.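 The calls were made as follows: active = mean half-maximal effective concentration under 30 µM; inactive = the rest.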
Outcome codes: class 1 (active), class 0 (inactive)

>>> print(df.to_string())
                                    compound  answer_label
 0  COc1ccc(C#Cc2cccc(C(=O)N3CCC(O)CC3)c2)cc1       class 1
 1    O=C(c1ccc(C#CCC2CCCCC2)cc1)N1CCC(O)CC1       class 1
 2  COc1ccc(C#Cc2ccc(C(=O)NCCC3=CCCCC3)cc2)cc1       class 0
 3     O=C(c1ccc(C#CCC2CCCC2)cc1)N1CCC(O)CC1       class 1
 4     CC(C)(C)C#Cc1ccc(C(=O)N2CCC(O)CC2)cc1       class 0
 5  O=C(CN1CCc2cc(C#Cc3ccccc3)ccc2C1=O)NCCN1CCCCC1       class 1
 6  CC(C)(C)c1ccc(C#Cc2ccc(C(=O)N3CCC(O)CC3)cc2)cc1       class 0
 7     CCOC(=O)C#Cc1ccc(C(=O)N2CCC(O)CC2)cc1       class 0
 8  CC(C)(C)OC(=O)N1CCC(NC(=O)CN2CCc3cc(C#Cc4ccccc4)ccc3C2=O)CC1       class 1
 9  CCC(C)(O)C#Cc1ccc(C(=O)N2CCC(O)CC2)cc1 (stereo unspecified)       class 0
10     O=C(c1ccc(C#Cc2ccccc2)cc1)N1CCC(O)CC1       class 1
